Hey, just so you know, these numbers are from paper PMC6010526.

Target: porcine DPP-IV (Sus scrofa)
Sequence (P22411 whole entry): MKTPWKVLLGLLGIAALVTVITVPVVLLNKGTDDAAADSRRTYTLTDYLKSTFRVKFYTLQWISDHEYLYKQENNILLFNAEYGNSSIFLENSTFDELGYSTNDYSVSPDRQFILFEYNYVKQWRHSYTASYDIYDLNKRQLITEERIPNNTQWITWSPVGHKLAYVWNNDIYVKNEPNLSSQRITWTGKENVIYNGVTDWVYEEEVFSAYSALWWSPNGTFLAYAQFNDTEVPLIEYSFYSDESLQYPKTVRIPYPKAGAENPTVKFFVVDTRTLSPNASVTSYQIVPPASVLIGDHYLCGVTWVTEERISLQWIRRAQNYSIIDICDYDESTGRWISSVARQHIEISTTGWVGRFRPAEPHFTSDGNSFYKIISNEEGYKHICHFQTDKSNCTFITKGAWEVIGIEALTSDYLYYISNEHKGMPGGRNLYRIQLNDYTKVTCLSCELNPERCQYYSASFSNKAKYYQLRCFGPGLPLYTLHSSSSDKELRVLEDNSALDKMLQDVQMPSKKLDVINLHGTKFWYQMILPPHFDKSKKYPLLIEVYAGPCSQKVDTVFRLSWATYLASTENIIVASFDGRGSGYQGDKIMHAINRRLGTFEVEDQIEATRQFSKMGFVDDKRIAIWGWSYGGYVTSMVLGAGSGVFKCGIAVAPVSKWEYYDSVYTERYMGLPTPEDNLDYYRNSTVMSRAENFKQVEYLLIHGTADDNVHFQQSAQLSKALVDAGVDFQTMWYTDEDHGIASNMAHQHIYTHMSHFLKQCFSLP
Experiment: Stability of peptides to hydrolysis by DPP-IV (LC-MS/MS)
Conditions: 30 min incubation with DPP-IV
Residues, ends and D or L forms follow the SMILES beside them.
assay readout: Hydrolysis by DPP-IV (stability), in words

| molecule | result |
| --- | --- |
| C[C@H](N)C(=O)N1CCC[C@H]1C(=O)N[C@@H](C)C(=O)O [APA, Ala-Pro-Ala] (H-Ala-Pro-Ala-OH; N-terminus and C-terminus assumed) | not hydrolyzed by DPP-IV |
| C[C@H](NC(=O)[C@@H]1CCCN1C(=O)[C@@H](N)CCCCN)C(=O)O [KPA, Lys-Pro-Ala] (H-Lys-Pro-Ala-OH; N-terminus and C-terminus assumed) | not hydrolyzed by DPP-IV |

* * *

Measured inhibition at 500 µM, listed per entry for reference.
Target: porcine DPP-IV (Sus scrofa)
Test: DPP-IV inhibition assay with Gly-Pro-pNA substrate
Assay type: biochemical
Parameters: purchased Sigma Aldrich (Dublin, Ireland)
Conditions: peptide at 500 µM
Residues, ends and D or L forms follow the SMILES beside them.

Example compounds with recorded inhibition at 500 µM:
| compound | inhibition at 500 µM |
| --- | --- |
| N[C@@H](Cc1ccccc1)C(=O)N1CCC[C@H]1C(=O)N[C@@H](Cc1ccccc1)C(=O)O [FPF, Phe-Pro-Phe] (H-Phe-Pro-Phe-OH; N-terminus and C-terminus assumed) | 62.9% |
| C[C@H](N)C(=O)N1CCC[C@H]1C(=O)N[C@@H](C)C(=O)O [APA, Ala-Pro-Ala] (H-Ala-Pro-Ala-OH; N-terminus and C-terminus assumed) | > 65% |

Request: Form: Entry = N=C(N)NCCC[C@H](NC(=O)[C@H](CCCCN)NC(=O)[C@@H](N)CCCNC(=N)N)C(=O)O [RKR, Arg-Lys-Arg] (H-Arg-Lys-Arg-OH; N-terminus and C-terminus assumed) | System = porcine DPP-IV (Sus scrofa) | inhibition at 500 µM = ____
Result: < 25%

* * *

Biological target: UniProt:P22411
Test: DPP-IV inhibition assay with Gly-Pro-pNA substrate
Type: biochemical
Set-up: purchased Sigma Aldrich (Dublin, Ireland)
Conditions: peptide at 500 µM
Residues, ends and D or L forms follow the SMILES beside them.
assay readout: inhibition at 500 µM

Request: Looking for the measured inhibition at 500 µM of C[C@H](NC(=O)[C@@H]1CCCN1C(=O)[C@@H](N)CCCCN)C(=O)O [KPA, Lys-Pro-Ala] (H-Lys-Pro-Ala-OH; N-terminus and C-terminus assumed) , can you help?
Result: > 65%

Request: Looking for the measured inhibition at 500 µM of C[C@H](N)C(=O)N1CCC[C@H]1C(=O)N[C@@H](CCCNC(=N)N)C(=O)O [APR, Ala-Pro-Arg] (H-Ala-Pro-Arg-OH; N-terminus and C-terminus assumed) , can you help?
Result: > 65%

Request: Looking for the measured inhibition at 500 µM of CC[C@H](C)[C@H](N)C(=O)N[C@@H](C)C(=O)N[C@H](C(=O)O)[C@@H](C)CC [IAI, Ile-Ala-Ile] (H-Ile-Ala-Ile-OH; N-terminus and C-terminus assumed) , can you help?
Result: 9.6%
